- ASSAY METHOD TEXT: in vivo
- Set-up: species or system beagle dogs
- ASSAY CONDITIONS: male, beagle, dog, po, 5 mg/kg
REPORTED PROPERTY: AUC(0-t) (ng·h/mL)
Answers are plain numbers, in ng·h/mL.

Give a short answer stating reported AUC(0-t) for Cc1noc2c1-c1ccccc1C(c1ccc(Cl)cc1)=N[C@H]2CC(N)=O (single isomer, unassigned) [Form B] .
12100

---

- ASSAY METHOD TEXT: in vivo
- Parameters: species or system beagle dogs
- ASSAY CONDITIONS: male, beagle, dog, po, 5 mg/kg
REPORTED PROPERTY: Cmax (ng/mL)
Answers are plain numbers, in ng/mL.

Give a short answer stating reported Cmax for Cc1noc2c1-c1ccccc1C(c1ccc(Cl)cc1)=N[C@H]2CC(N)=O (single isomer, unassigned) [Form B] .
1750
